Reference source: patent US20240254138A1

Entries and their Ki values follow.
- Measured On: CDK7/cyclinH/MAT1 trimeric complex (Homo sapiens, UniProt P50613)
- Sequence (P50613 whole entry): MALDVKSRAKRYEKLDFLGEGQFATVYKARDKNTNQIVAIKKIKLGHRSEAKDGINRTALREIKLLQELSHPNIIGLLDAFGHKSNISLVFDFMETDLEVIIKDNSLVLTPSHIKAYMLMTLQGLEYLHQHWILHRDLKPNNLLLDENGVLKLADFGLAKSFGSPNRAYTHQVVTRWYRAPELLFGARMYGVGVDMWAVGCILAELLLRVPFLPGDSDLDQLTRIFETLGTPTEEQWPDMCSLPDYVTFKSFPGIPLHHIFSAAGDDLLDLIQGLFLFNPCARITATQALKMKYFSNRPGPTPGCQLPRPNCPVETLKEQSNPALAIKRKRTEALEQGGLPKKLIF
- Sequence (P51946 whole entry partner): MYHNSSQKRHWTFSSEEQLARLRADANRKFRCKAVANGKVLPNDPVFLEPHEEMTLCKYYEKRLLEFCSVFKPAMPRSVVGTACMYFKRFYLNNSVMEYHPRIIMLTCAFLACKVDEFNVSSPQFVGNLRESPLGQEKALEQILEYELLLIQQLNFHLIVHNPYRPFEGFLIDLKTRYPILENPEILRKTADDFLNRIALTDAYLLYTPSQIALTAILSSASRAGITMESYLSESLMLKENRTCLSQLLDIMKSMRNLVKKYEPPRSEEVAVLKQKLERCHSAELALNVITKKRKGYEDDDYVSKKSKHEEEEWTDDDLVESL
- Sequence (P51948 whole entry partner): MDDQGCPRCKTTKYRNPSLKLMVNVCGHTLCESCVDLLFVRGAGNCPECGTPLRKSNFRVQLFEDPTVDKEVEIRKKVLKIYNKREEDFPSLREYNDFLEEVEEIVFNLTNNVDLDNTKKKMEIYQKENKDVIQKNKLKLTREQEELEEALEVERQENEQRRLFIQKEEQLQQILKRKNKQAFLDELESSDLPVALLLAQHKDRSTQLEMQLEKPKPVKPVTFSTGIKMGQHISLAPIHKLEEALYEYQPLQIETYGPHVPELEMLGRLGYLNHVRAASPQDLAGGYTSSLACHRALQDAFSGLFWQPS
- Method Notes: In vitro CDK7 assay, potency of irreversible covalent inhibitors (kinact/KI), coupled PK/LDH ADP readout at 340 nm
- Measurement Parameters: CDK7 (20 nM enz.) (KI, μM), 20 nM enzyme
The reply should be a number in µM, with the unit left off.

Solved cases below.
>>> readout_value("Cc1nc(C2CCN(C3CN(C(=O)/C=C/C(=O)OC(C)C)C3)CC2)cc2c1OCc1c(-c3cnn(C)c3)ccnc1N2")
0.311
>>> readout_value("C#CCCN(C)C/C=C/C(=O)N1CC(N2CCC(c3ccc4c(c3)Nc3nccc(N5CCOCC5)c3C(C)O4)CC2)C1 (stereo not shown) [Compound 146]")
0.0285
>>> readout_value("C=CC(=O)N1CCC(N2CC(c3cc4c(c(C(F)(F)F)n3)OCc3c(N5CCOCC5)ccnc3N4)C2)CC1 [Compound 453]")
0.0717

Turning now to a further record.
Problem: For the molecule C=CC(=O)N1CC(N2CCC(c3ccc4c(c3)Nc3nccc(C5CCOCC5)c3[C@H](C)O4)CC2)C1 (single isomer, unassigned) [Compound 98] , report Ki.
Solution: 0.39

* * *

Entries and their kinact values follow.
- Measured On: CDK7/cyclinH/MAT1 trimeric complex (Homo sapiens, UniProt P50613)
- Method Notes: In vitro CDK7 assay, potency of irreversible covalent inhibitors (kinact/KI), coupled PK/LDH ADP readout at 340 nm
- Measurement Parameters: read-out: CDK7 (20 nM enz.) (kinact, s^−1), 20 nM enzyme
The reply should be a number in s⁻¹, with the unit left off.

Solved cases below.
>>> readout_value("C=CC(=O)N1CCC(N2CCC(c3cc4c(c(C)n3)O[C@H](C)c3c(N5CCOCC5)ccnc3N4)CC2)CC1 (single isomer, unassigned)")
0.000181
>>> readout_value("CC#CC(=O)N1CC(N2CC(c3cc4c(c(C)n3)O[C@H](C)c3c(N5CCOCC5)ccnc3N4)C2)C1 (single isomer, unassigned)")
"3.51e-05"

Turning now to a further record.
Problem: For the compound C=CC(=O)N1CC[C@H](N2CC(c3cc4c(c(C(F)(F)F)n3)OCc3c(-c5cnn(C)c5)ccnc3N4)C2)C1 (single isomer, unassigned) , report kinact.
Solution: 5.55e-05

* * *

- Measured On: CDK7/cyclinH/MAT1 trimeric complex (Homo sapiens)
- Method Notes: In vitro CDK7 assay, potency of irreversible covalent inhibitors (kinact/KI), coupled PK/LDH ADP readout at 340 nm
- Measurement Parameters: CDK7 (20 nM enz.) (KI, μM), 20 nM enzyme
Parameter Measured: Ki (µM)
The reply should be a number in µM, with the unit left off.

Solved cases below.
>>> readout_value("C=CC(=O)N1CCC(N2CC(c3cc4c(c(C)n3)OCc3c(N5CCOCC5)ccnc3N4)C2)CC1 [Compound 165]")
0.0638
>>> readout_value("C=CC(=O)N1CC[C@H](N2CC(c3cc(C)c4c(c3)Nc3nccc(-c5cnn(C)c5)c3CO4)C2)C1 (single isomer, unassigned) [Compound 192]")
0.0907

Turning now to a further record.
Problem: For the compound CC#CC(=O)N1CC[C@@H](N2CC(c3cc(C)c4c(c3)Nc3nccc(C5CCOCC5)c3CO4)C2)C1 (single isomer, unassigned) , report Ki.
Solution: 0.067
